Target: Bromodomain-containing protein 1 (Homo sapiens) (UniProt O95696)
Sequence (O95696 whole entry, the tested form may be a part): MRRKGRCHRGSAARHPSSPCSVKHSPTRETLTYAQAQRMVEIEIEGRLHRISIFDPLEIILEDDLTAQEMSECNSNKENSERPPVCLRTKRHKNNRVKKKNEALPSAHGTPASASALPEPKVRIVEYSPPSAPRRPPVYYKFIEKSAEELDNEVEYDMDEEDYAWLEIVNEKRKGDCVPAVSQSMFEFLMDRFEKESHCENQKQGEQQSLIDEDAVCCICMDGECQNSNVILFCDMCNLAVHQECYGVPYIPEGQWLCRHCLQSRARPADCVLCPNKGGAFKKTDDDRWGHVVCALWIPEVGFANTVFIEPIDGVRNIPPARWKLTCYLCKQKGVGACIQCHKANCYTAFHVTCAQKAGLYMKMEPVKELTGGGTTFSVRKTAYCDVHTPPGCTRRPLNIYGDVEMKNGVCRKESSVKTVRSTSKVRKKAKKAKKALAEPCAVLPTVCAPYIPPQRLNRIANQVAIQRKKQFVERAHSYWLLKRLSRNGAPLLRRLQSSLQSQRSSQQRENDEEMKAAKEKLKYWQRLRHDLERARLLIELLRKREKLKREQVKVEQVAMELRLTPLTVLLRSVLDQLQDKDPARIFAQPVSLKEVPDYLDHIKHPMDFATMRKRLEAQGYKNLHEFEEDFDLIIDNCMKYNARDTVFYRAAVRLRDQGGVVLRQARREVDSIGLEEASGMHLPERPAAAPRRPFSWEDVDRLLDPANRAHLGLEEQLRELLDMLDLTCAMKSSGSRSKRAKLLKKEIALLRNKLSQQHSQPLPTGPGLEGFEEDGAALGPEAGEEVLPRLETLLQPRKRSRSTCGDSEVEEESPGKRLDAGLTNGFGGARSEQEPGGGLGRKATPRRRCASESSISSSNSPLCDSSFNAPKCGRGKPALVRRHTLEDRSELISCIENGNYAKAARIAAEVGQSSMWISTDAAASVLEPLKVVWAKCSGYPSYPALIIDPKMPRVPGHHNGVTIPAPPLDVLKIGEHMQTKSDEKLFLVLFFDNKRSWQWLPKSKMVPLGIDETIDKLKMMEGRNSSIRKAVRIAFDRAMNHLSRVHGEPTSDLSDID
Test: Binding affinity to human His6-tagged BRD1 (E556 to A688 residues) expressed in Escherichia coli BL21(DE3) cells at 200 uM incubated for 30 mins by SYPRO orange staining based fluorescence thermal shift assay
Returns: string. Value is true if measured ΔTm is below 2 °C, and false if it is greater than or equal to it.

Some solved cases for reference:
structure | assignedLabel
COc1ccc(CCc2nc3cc(-c4c(C)noc4C)ccc3n2C[C@H](C)N2CCOCC2)cc1Cl | false
CCOC(=O)Nc1cc(-c2ccc(C)c(NS(C)(=O)=O)c2)nn2c(C)nnc12 | false
CCCNS(=O)(=O)c1ccc2c3c(cccc13)C(=O)N2CC | true

Lookup: Say whether its ΔTm is strictly beneath 2 °C. Entry: CCN1C(=O)c2cccc3c(S(=O)(=O)NCCCN4CCN(C)CC4)ccc1c23
Found: false

Lookup: Say whether its ΔTm is strictly beneath 2 °C. Entry: Cc1sc2c(c1C)C(c1ccc(Cl)cc1)=N[C@@H](CC(=O)OC(C)(C)C)c1nnc(C)n1-2
Found: true
